Where a name gives a salt, the structure may show the parent alone.
Entries with their measured Ki, system human serotonin transporter (Homo sapiens):
Write down the numeric answer in nM and omit the unit.

molecule="COc1ccc(-c2ccccc2CO[C@H]2CCNC2)cn1 [Example A-29, fumarate]" tgt="human serotonin transporter (Homo sapiens)" unit_string=nM val=2470

Any idea what Ki was measured for COc1ccc(-c2ccccc2CO[C@H]2CCNC2)cc1C [Example A-10, fumarate] ? 116

Then this molecule: Fc1ccc(CO[C@H]2CCNC2)c(-c2cccc(F)c2F)c1 [Example A-24, hydrochloride] 232

Then this molecule: COc1ccc(-c2ccccc2CO[C@H]2CCNC2)cc1C [Example D-2] 261

Then this molecule: `COc1c(C)cc(-c2ccc(F)cc2CO[C@H]2CCNC2)cc1C` 144

====

Target: human serotonin transporter (Homo sapiens)
Sequence (P31645 whole entry): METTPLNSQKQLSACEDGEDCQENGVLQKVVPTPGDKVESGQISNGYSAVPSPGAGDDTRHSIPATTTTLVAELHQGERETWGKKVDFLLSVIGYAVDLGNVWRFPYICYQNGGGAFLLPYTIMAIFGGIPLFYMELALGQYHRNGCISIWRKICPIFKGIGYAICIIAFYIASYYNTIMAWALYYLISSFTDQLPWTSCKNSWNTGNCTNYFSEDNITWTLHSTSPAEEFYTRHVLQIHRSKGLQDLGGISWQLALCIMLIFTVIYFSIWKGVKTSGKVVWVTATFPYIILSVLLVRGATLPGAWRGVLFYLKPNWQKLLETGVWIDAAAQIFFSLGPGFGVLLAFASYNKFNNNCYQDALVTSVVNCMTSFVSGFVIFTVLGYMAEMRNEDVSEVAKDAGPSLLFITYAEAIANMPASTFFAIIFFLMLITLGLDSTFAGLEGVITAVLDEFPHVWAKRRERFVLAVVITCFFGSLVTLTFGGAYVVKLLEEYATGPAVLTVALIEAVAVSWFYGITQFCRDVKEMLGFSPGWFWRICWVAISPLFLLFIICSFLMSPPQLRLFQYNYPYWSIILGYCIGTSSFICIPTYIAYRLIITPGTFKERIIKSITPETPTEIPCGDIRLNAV
pKi: −log10 of the molar value. Counter-ions that a name gives are not always drawn.
Binary call on pKi: true (1) from 6 upward, false (0) beneath that.

compound="N#Cc1cccc(-c2ccc(F)cc2F)c1CO[C@H]1CCNC1 [Example E-2, fumarate]" category="false (0)"
compound="Fc1ccc(CO[C@H]2CCNC2)c(-c2ccccc2F)c1 [Example A-25, hydrochloride]" category="true (1)"
compound=Cc1cccc(-c2ccccc2CO[C@H]2CCNC2)c1C category="true (1)"
compound=Clc1cccc(-c2ccccc2CO[C@H]2CCNC2)c1 category="true (1)"

Please indicate if the recorded pKi for Fc1cccc(-c2cccnc2CO[C@H]2CCNC2)c1F [Example C-2, fumarate] meets or exceeds 6. true (1)

====

Target: human serotonin transporter (Homo sapiens)
Where a name gives a salt, the structure may show the parent alone.
QUANTITY_KIND: pKi
In textbook form, pKi equals minus log to base ten of the concentration in mol/L.

Answered cases to consult:
compound="Fc1ccc(-c2ccccc2CO[C@H]2CCNC2)cc1Cl [Example D-14]" quantity_kind=pKi val=7.82
compound="c1ccc(-c2ccccc2CO[C@H]2CCNC2)cc1 [Example A-7, hydrochloride]" quantity_kind=pKi val=7.46
compound="Cc1cccc(-c2ccc(F)cc2CO[C@H]2CCNC2)c1C [Example D-82]" quantity_kind=pKi val=7.11
compound="Fc1ccc(-c2ccccc2)c(CO[C@H]2CCNC2)c1 [Example D-66]" quantity_kind=pKi val=6.90
compound="Cc1cc(-c2ccc(F)cc2CO[C@H]2CCNC2)ccc1F [Example D-94]" quantity_kind=pKi val=7.05

Any idea what pKi was measured for Fc1ccc(-c2cccc(C(F)(F)F)c2)c(CO[C@H]2CCNC2)c1 [Example D-75] ? 6.98

Then this compound: Fc1ccccc1-c1cccc(F)c1CO[C@H]1CCNC1 [Example A-30, fumarate] 6.61

Then this compound: Fc1cccc(-c2ncccc2CO[C@H]2CCNC2)c1F [Example B-2, fumarate] 5.48

====

Entries with their measured log10 Ki, system human serotonin transporter (Homo sapiens, UniProt P31645):
Structures can show the parent of a compound that is named as a salt.
Values are log10 of Ki in µM.

compound="Fc1ccc(-c2ccccc2CO[C@H]2CCNC2)cc1F [Example A-5, hydrochloride]" quantity_kind="log10 Ki" val=-1.92

Any idea what log10 Ki was measured for COc1ccccc1-c1ccccc1CO[C@H]1CCNC1 [Example D-31] ? 0.49

Then this compound: `N#Cc1ccc(-c2ccccc2CO[C@H]2CCNC2)cc1` 0.74

Then this compound: Fc1ccc(-c2ccccc2CO[C@H]2CCNC2)cc1Cl [Example A-11, hydrochloride] -1.99

Then this compound: `CCS(=O)(=O)c1ccc(-c2ccccc2CO[C@H]2CCNC2)cc1` 0.48

Then this compound: Fc1ccc(-c2ncccc2CO[C@H]2CCNC2)c(F)c1 [Example B-1, fumarate] 0.75

Then this compound: `Cc1cc(C)cc(-c2ccc(F)cc2CO[C@H]2CCNC2)c1` -0.94

Then this compound: `COc1ccc(Cl)cc1-c1ccc(F)cc1CO[C@H]1CCNC1` -0.10
